Data origin: patent US20160264650A1

Biological target: Clostridium difficile toxin B, soluble full-length (TechLab) (Clostridium difficile, UniProt P18177 2-2366)
Sequence (P18177 2-2366 limits assumed): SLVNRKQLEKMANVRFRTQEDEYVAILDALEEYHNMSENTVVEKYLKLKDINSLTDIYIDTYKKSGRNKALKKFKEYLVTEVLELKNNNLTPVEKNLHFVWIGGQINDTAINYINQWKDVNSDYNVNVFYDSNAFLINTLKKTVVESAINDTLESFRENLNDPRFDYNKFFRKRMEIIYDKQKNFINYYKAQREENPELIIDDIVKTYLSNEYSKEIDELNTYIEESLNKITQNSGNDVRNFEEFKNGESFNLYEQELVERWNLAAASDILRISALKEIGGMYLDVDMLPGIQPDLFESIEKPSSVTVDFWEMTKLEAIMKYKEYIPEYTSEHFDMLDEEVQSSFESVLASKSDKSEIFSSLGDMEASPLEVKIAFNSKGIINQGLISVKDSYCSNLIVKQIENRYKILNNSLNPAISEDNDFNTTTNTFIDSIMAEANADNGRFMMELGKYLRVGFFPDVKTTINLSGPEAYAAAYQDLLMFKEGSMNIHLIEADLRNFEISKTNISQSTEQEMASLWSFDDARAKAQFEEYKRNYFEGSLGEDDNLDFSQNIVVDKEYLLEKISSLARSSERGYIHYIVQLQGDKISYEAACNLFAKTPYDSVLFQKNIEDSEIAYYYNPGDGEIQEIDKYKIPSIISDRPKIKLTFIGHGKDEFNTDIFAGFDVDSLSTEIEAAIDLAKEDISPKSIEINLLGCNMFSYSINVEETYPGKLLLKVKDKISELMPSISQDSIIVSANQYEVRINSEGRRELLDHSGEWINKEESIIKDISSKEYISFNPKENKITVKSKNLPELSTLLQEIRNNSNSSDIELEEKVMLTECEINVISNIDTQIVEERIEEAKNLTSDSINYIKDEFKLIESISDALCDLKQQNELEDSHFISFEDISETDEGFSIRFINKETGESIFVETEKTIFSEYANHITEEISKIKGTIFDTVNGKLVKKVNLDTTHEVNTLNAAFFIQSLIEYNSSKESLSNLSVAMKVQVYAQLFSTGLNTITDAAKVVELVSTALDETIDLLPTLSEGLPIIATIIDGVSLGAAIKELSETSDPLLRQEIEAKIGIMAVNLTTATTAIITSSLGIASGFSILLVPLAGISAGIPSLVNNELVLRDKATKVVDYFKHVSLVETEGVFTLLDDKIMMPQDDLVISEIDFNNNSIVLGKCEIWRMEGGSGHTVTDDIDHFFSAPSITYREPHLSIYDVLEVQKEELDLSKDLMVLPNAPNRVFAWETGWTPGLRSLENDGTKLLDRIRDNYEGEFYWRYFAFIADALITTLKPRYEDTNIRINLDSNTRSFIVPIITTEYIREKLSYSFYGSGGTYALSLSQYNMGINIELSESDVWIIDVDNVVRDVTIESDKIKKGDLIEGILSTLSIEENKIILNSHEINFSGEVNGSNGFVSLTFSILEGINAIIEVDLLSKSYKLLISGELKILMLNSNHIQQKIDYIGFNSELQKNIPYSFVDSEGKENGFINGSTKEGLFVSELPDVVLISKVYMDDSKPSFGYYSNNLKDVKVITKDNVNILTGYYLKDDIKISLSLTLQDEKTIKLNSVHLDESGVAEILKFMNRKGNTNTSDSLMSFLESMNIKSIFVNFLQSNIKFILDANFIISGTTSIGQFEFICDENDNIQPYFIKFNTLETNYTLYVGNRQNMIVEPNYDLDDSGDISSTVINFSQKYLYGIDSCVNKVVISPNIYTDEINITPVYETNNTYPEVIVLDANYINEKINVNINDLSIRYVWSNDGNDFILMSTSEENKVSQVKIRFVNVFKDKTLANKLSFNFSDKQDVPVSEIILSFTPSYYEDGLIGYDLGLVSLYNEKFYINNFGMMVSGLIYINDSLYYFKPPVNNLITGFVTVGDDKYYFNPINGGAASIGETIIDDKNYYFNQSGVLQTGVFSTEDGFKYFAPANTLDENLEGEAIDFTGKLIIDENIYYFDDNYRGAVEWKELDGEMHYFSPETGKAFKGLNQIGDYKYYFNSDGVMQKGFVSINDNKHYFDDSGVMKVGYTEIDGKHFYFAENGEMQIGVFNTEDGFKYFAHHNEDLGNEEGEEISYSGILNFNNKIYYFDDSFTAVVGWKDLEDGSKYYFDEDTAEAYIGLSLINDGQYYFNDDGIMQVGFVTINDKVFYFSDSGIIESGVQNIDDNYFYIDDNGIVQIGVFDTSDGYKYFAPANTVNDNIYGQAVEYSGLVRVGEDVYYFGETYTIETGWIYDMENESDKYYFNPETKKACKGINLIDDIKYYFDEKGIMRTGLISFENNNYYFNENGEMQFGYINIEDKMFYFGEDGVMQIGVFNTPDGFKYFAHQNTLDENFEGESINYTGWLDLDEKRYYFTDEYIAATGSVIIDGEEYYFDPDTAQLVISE
Experiment: cell-based or functional assay
Exercise: state measured IC50, Vero cell viability (neutralization), Trial 3, 0.03 pM Toxin B for each of the binders provided.
The answer is to be given in pM; state only the numeric part.

Q) Fill in: IC50, Vero cell viability (neutralization), Trial 3, 0.03 pM Toxin B of H1H3343P (antibody, V domains shown) VH: EVQLVESGGGLVQPGGSLRLSCVASGFNFRIYAMSWVRQAPGKGPEWVSGISGSGDNTYYAASVKGRFTVSRDNSKNTLYLQMTSLRAEDTAVFYCARGWELLNYWGQGTLVTVSS VL: DIQMTQSPSSLSASVGDRVTITCRASLDIGNFLAWFQQKPGTAPKSLIYSASSLQTGVPSKFSGSGSGTDFTLTISSLQPEDFATYYCQQYNSYPPTFGPGTKVDIKR is ___
A) 50

Q) Fill in: IC50, Vero cell viability (neutralization), Trial 3, 0.03 pM Toxin B of H1H3335P (antibody, V domains shown) VH: EVQLVESGGGLVRPGGSLRLSCAASGFTFRIYAMSWVRQAPGKGLEWVSGISGSGDNTYYTDSVKGRFIISRDNSKSTLYLQMNSLRAEDTAVYYCARGWELLNYWGQGTLVTVSS VL: DIQMTQSPSSLSAFVGDRVTITCRASQDISNHLAWFQQKPGKVPKSLIYAASSLQSGVPSKFSGSGSGTDFTLTISSLQPEDFATYYCQQYGLYPPTFGPGTKVDIKR is ___
A) 120

Q) Fill in: IC50, Vero cell viability (neutralization), Trial 3, 0.03 pM Toxin B of H1H3339P (antibody, V domains shown) VH: EVQLVESGGGLVQPGGSLRLSCAVSGFTFSIYAMSWVRQAPGKGLEWVSAISGSGDKTYYADSVKGRFTISRDNSKNTLYLQMNSLRAEDTAVFYCARGWELLNYWGQGTLVTVSS VL: DIQMTQSPSSLSASVGDRVTITCRASLDISNFLAWFQQKPGTAPKSLIYSASSLRTGVPSKFSGSGSGTDFTLTISSLQPEDFATYYCQQYSSYPPTFGPGTKVDIKR is ___
A) 90
